target: FLT3-ITD (Homo sapiens, UniProt P36888); construct: FLT3-ITD; Invitrogen #PV6190; assay: FLT3-ITD biochemical kinase assay (AlphaScreen)
Overview of recorded IC50 for various compounds

Solved cases (5 shown):
- compound: "CC(C)S(=O)(=O)Nc1cccc(-c2cnc3[nH]cc(-c4ccc5ncn(C)c5c4)c3n2)c1"
  measure: "IC50"
  obs-value: "0.0001 to 1 µM"
- compound: "COc1cc(-c2cnc3[nH]cc(-c4ccc5ncn(C)c5c4)c3c2)cc(OC)n1"
  measure: "IC50"
  obs-value: "0.0001 to 1 µM"
- compound: "CCCn1cnc2cc(-c3c[nH]c4ncc(OC)cc34)ccc21"
  measure: "IC50"
  obs-value: "0.0001 to 1 µM"
- compound: "CC(C)(C)n1cnc2ccc(-c3c[nH]c4ncc(C#Cc5cccc(C#N)c5)cc34)cc21"
  measure: "IC50"
  obs-value: "0.0001 to 1 µM"
- compound: "FC(F)(F)Cn1cc(-c2cnc3[nH]cc(-c4ccc5ncn(C6CCCNC6)c5c4)c3n2)cn1 (centres unmarked)"
  measure: "IC50"
  obs-value: "0.0001 to 1 µM"

In: For CC(C)(C)n1cnc2ccc(-c3c[nH]c4ncc(-c5cnc(N6CCC(F)(F)CC6)nc5)nc34)cc21 , what is its reported IC50?
Out: 0.0001 to 1 µM

In: For CC(C)(C)n1cnc2ccc(-c3c[nH]c4ncc(C(=O)Nc5cccc(C#N)c5)cc34)cc21 , what is its reported IC50?
Out: 0.0001 to 1 µM

In: For CN1CCN(c2ccc(-c3cnc4[nH]cc(-c5ccc6ncn(C(C)(C)C)c6c5)c4n3)cn2)CC1 , what is its reported IC50?
Out: 0.0001 to 1 µM

----------
Overview of recorded GI50 for various compounds
target: BA/F3-FLT3-ITD + F691L cells (Homo sapiens, UniProt P36888, F691L, cells depend on it, form not given); assay: BA/F3-FLT3-ITD + F691L cell proliferation assay (CellTiter-Glo); format: cell-based, murine; settings: BaF3 FLT3 ITD/F691L cells; read-out: Cell Activity (IC50 μM) BaF3_FLT3_ITD/F691L

- compound: "CC(C)(C)n1cnc2ccc(-c3c[nH]c4ncc(-c5cnc(F)c(F)c5)nc34)cc21"
  obs-value: "0.0001 to 1 µM"
- compound: "c1nc(N2CCOCC2)ncc1-c1cnc2[nH]cc(-c3ccc4ncn(C5CCCNC5)c4c3)c2c1 (centres unmarked)"
  obs-value: "0.0001 to 1 µM"
- compound: "CC(C)(C)n1cnc2ccc(-c3c[nH]c4ncc(-c5ccnc(N6CCOCC6)c5)nc34)cc21"
  obs-value: "0.0001 to 1 µM"
- compound: "N#Cc1cc(-c2cnc3[nH]cc(-c4ccc5ncn(C6CCCNC6)c5c4)c3c2)ccc1F (centres unmarked)"
  obs-value: "0.0001 to 1 µM"
- compound: "CN1CCN(c2ccc(-c3cnc4[nH]cc(-c5ccc6ncn(C(C)(C)C)c6c5)c4n3)cc2)CC1"
  obs-value: "0.0001 to 1 µM"

In: For COc1cc(C#Cc2cnc3[nH]cc(-c4ccc5ncn(C(C)(C)C)c5c4)c3n2)ccn1 , what is its reported GI50?
Out: 0.0001 to 1 µM

In: For c1cc(N2CCOCC2)ncc1-c1cnc2[nH]cc(-c3ccc4ncn(C5CCCNC5)c4c3)c2n1 (centres unmarked) , what is its reported GI50?
Out: 0.0001 to 1 µM

In: For CC(C)(C)n1cnc2ccc(-c3n[nH]c4ncc(-c5ccnc(N6CCOCC6)c5)cc34)cc21 , what is its reported GI50?
Out: 0.0001 to 1 µM

In: For CN1CCN(c2ccc(-c3cnc4[nH]cc(-c5ccc6ncn(C7CCCNC7)c6c5)c4n3)cn2)CC1 (centres unmarked) , what is its reported GI50?
Out: 0.0001 to 1 µM

In: For Cc1ncc(C#Cc2cnc3[nH]cc(-c4ccc5ncn(C(C)(C)C)c5c4)c3n2)cn1 , what is its reported GI50?
Out: 0.0001 to 1 µM

In: For CC(C)(C)n1cnc2ccc(-c3c[nH]c4ncc(-c5ccc(N6CCOCC6)nc5)cc34)cc21 , what is its reported GI50?
Out: 0.0001 to 1 µM

In: For CC(C)(O)c1ncc(-c2cnc3[nH]cc(-c4ccc5ncn(C(C)(C)C)c5c4)c3n2)cn1 , what is its reported GI50?
Out: 0.0001 to 1 µM

In: For FC(F)n1cc(-c2cnc3[nH]cc(-c4ccc5ncn(C6CCCNC6)c5c4)c3n2)cn1 (centres unmarked) , what is its reported GI50?
Out: 0.0001 to 1 µM

In: For COc1ncc(-c2cnc3[nH]cc(-c4ccc5ncn(C(C)(C)C)c5c4)c3n2)cc1C#N , what is its reported GI50?
Out: 0.0001 to 1 µM

In: For COc1ncc(-c2cnc3[nH]cc(-c4ccc5ncn(C(C)C)c5c4)c3c2)cn1 , what is its reported GI50?
Out: 0.0001 to 1 µM

In: For Cn1cnc2ccc(-c3c[nH]c4ncc(-c5cnn(CC(F)(F)F)c5)cc34)cc21 , what is its reported GI50?
Out: 0.0001 to 1 µM

In: For CC(C)(C)n1cnc2ccc(-c3c[nH]c4ncc(-c5cccc(N6CCNCC6)c5)nc34)cc21 , what is its reported GI50?
Out: 0.0001 to 1 µM
